Assay: qHTS assay to identify small molecule antagonists of the estrogen receptor beta (ER-beta) signaling pathway - cell viability counter screen (AID 1259382); further: nearly all actives have a fitted effect of over 55% in size
Conditions: ER-beta-UAS-bla HEK293T viability, CellTiter-Glo luminescence, 16 h; series mostly up to 92.4 µM
Results filed as inconclusive are left out. Activity calls are given as the source filed them. The call rests on the fitted dose curve; in most records, active means well fitted cell-killing curve with a large enough effect in the repeat runs; inconclusive means weak or mixed curves; inactive means flat fitted curve, though single readings scatter.
Lab note: assign the record to one of active, inactive

Worked examples, 5 molecules total:
CCC(=O)Nc1ccc(Cl)c(Cl)c1    inactive
CNC(=O)Oc1cccc2c1OC(C)(C)C2    inactive
C=C(C)C#N    inactive
O=NN(c1ccccc1)c1ccccc1    inactive
c1ccc(C2CO2)cc1 (configuration not stated)    inactive

Outcome logged for `CC(C)(c1ccccc1)c1ccc(O)cc1` in this assay:
active

Outcome logged for `Nc1ccc([N+](=O)[O-])cc1N` in this assay:
inactive

Outcome logged for CC1CC(=O)O1 (configuration not stated) in this assay:
inactive

Outcome logged for `NN=C(N)N` in this assay:
inactive

Outcome logged for `C[N+](C)(C)CC(=O)[O-]` in this assay:
inactive
